Each recorded value in this set is attributed to PubChem BioAssay (NCI).

Recorded TGI for the following molecules
System: UO-31 renal
Test: NCI tumour cell line growth inhibition, 48 h

molecule	TGI
O=C1C2C3C=C4c5ccccc5N(c5ccccc5)C4(C2C(=O)N1c1ccc(Br)cc1)[C@H]1C(=O)N(c2ccc(Br)cc2)C(=O)[C@@H]31 (stereo not given in full)	> 100 µM
COc1ccc(N2C(=O)C3c4[nH]c5ccc(F)cc5c4C4CCC(C(C)(C)C)CC4C3C2=O)cc1 (stereo not given)	> 10 µM
NC(=S)N=Nc1c(O)c2ccccc2c2ccccc12	> 76.1 µM
N#C/C(N)=C(\C#N)N=CNc1ccc(N)cc1	> 100 µM
CCN1C[C@]2(COC)[C@H](O)C[C@H](OC)[C@]34C1[C@H]([C@H](OC)[C@H]23)[C@]1(OC(C)=O)[C@H]2[C@@H](OC(=O)c3ccccc3)[C@](O)(C[C@H]24)[C@@H](OC)[C@@H]1O	> 100 µM
COc1ccccc1NCc1cccc2c(=O)c3ccc(Cl)cc3oc12	> 100 µM
COc1ccc(Nc2nc3cc(N)cc(N)c3nc2-c2ccccc2)cc1OC	> 100 µM
COc1nc2c(c(=O)n1C)N=C(c1ccc(Cl)cc1)CC(c1ccccc1)N2 (stereo not given)	> 100 µM
CNS(=O)(=O)OCC1OC(n2cnc3c(N)ncnc32)C(O)C1O (stereo not given)	> 100 µM
CCCN1C(=O)/C(=C\c2ccc(OC)c(OC)c2)SC1=Nc1ccccc1	> 100 µM
c1ccc([As]=[As]c2ccccc2)cc1 (stereo not given)	2.39 µM
COc1ccc2c3c([nH]c2c1)CCN(Cc1ccccc1)C3	39.6 µM
COc1ccc(C2C=C(c3ccc(Cl)cc3)N=C3SC=C(C)N32)c(Br)c1 (stereo not given)	15.4 µM
CC(=O)N(O)Cc1ccccc1	> 100 µM
CC(=O)C(=[N+]=[N-])C(=O)N(C)CCC#N	> 10 µM

---

System: T-47D breast
Test: NCI tumour cell line growth inhibition, 48 h; in the data active means GI50 below about 0.43 µM; inactive means the rest
Labels: 1 (yes) for active, 0 (no) for inactive

compound	answer_label
CNS(=O)(=O)OCC1OC(n2cnc3c(N)ncnc32)C(O)C1O (configuration not stated)	0 (no)
CC(=O)OCCOCN1C(=O)NC(=O)/C(=C/c2cccc(OCc3ccccc3)c2)C1=O	0 (no)
CC1=C(C)C2(O)C(=C(C)C1=O)/C(=C(/O)c1ccccc1)c1nc3ccccc3n12 (configuration not stated)	0 (no)
ClCc1cccc(CSc2ncnc3c2ncn3Cc2cccc(CCl)c2)c1	0 (no)
C#COc1cccc(Nc2ncnc3cc(NC(=O)[C@H](C)Cl)ccc23)c1	0 (no)
CC(=O)c1cc(C(=O)c2ccc3c(c2)Sc2ccccc2N3)c2c(C)cccn12	1 (yes)
Nc1nc(=O)n([C@@H]2CS[C@H](CO)O2)cc1F	0 (no)
O=C(c1ccccc1)n1c(-c2ccccc2)cs/c1=N\S(=O)(=O)c1ccc(N2N=C3c4ccccc4CC3C2c2cccs2)cc1 (configuration not stated)	0 (no)
Nc1ccccc1C#C/C=C\C#Cc1c(F)c(F)c(F)c(F)c1F	0 (no)
O=c1cc(-c2ccccc2)oc2cc(OC/C(=N/O)c3ccc(F)cc3)ccc12	0 (no)
O=C(NCCNc1nccc(-c2c(-c3cccc(O)c3)nc3sccn23)n1)c1ccccc1	0 (no)
O=S(=O)(Nc1ccc(F)c(Cl)c1)c1ccc(-c2cnc(C3CC3)o2)cc1	1 (yes)

---

Tested on: OVCAR-3 ovarian
Test: NCI tumour cell line growth inhibition, 48 h
Recorded TGI for the following compounds

compound_structure	subject_of_test	TGI
CC(C)(C)OC(=O)Cn1ncn(NC(=O)Cc2ccccc2)c1=O	OVCAR-3 ovarian	> 10 µM
NCCCCCCNCc1cccc2ccccc12	OVCAR-3 ovarian	> 100 µM
COc1ccc(-n2c(=O)n(-c3ccccc3)c(=O)n2-c2ccc(OC)cc2)cc1	OVCAR-3 ovarian	> 100 µM

---

Test system: K-562 leukemia
Test: NCI tumour cell line growth inhibition, 48 h
measured_property: TGI (µM)

molecule	measured_property	unit_abbrev	comparison_sign	quantitative_readout
COc1cccc(/C(C)=N/NC(=O)CSc2nc3ccccc3c(=O)n2CCc2ccc(S(N)(=O)=O)cc2)c1	TGI	µM	>	100
Cc1cnc(Nc2ccc(N3CCN(C)CC3)cc2)nc1Nc1ccc(Cl)c(NS(=O)(=O)C(C)(C)C)c1	TGI	µM	=	7.74
CCOc1ccc(O)cc1[P+](c1ccccc1)(c1ccccc1)c1ccccc1	TGI	µM	=	9.48
CCOC(=O)/C=C/C(=O)[C@H](CC(C)C)NC(=O)[C@H](Cc1ccccc1)NC(=O)OCc1ccccc1	TGI	µM	=	10.5
COc1ccc(Nc2nc3cc(N)cc(N)c3nc2-c2ccccc2)cc1OC	TGI	µM	=	71.2
NC1Cc2ccccc2OC1=O (centres undefined)	TGI	µM	>	100
COc1ccc(C(CC(=O)c2ccccc2)C(C(=O)c2ccccc2)C(c2ccc(OC)cc2)C2C(=O)NC(=S)NC2=O)cc1 (centres undefined)	TGI	µM	>	100
CCN1C[C@]2(COC)[C@H](O)C[C@H](OC)[C@]34C1[C@H]([C@H](OC)[C@H]23)[C@]1(OC(C)=O)[C@H]2[C@@H](OC(=O)c3ccccc3)[C@](O)(C[C@H]24)[C@@H](OC)[C@@H]1O	TGI	µM	>	100
COc1cc2c(cc1C1=NC(C)(C)CO1)OCO2	TGI	µM	>	100

---

Test system: CCRF-CEM leukemia
Assay: NCI tumour cell line growth inhibition, 48 h
measured_property: TGI

compound	subject_of_test	measured_property	result
Cc1c(N2C(=O)/C(=C/c3ccc(N(CCC#N)CCC#N)cc3)N=C2c2ccccc2)c(=O)n(-c2ccccc2)n1C	CCRF-CEM leukemia	TGI	> 100 µM
Cc1nc2sccn2c1C(=O)NC(=O)Nc1ccc(Cl)cc1	CCRF-CEM leukemia	TGI	> 100 µM
Cc1ccc2oc3c(c(Br)c(Br)n3C)c(=O)c2c1	CCRF-CEM leukemia	TGI	> 100 µM
Cc1cc(Nc2cc(N3CCN(C)CC3)nc(Sc3ccc(NC(=O)C4CC4)cc3)n2)n[nH]1	CCRF-CEM leukemia	TGI	> 10 µM
C=CCOC(=O)C1CCC(=O)N1C(=O)C(Cl)Cl (stereo unspecified)	CCRF-CEM leukemia	TGI	> 100 µM
CC(=O)c1cc(C(=O)c2ccc3c(c2)Sc2ccccc2N3)c2c(C)cccn12	CCRF-CEM leukemia	TGI	> 100 µM
CSc1c(CC(=O)Nc2ccc(Cl)cc2)n(Cc2ccccc2)c2ccccc12	CCRF-CEM leukemia	TGI	> 100 µM
S=C(N1CCN(c2cccc(Cl)c2)CC1)N1CCN(c2cccc(Cl)c2)CC1	CCRF-CEM leukemia	TGI	27.8 µM
Nc1ccc(-c2nc3ccccc3s2)cc1C#Cc1ccccc1	CCRF-CEM leukemia	TGI	93.2 µM
CCN(CC)CCCNc1[nH]ncc2c(C)c3nc4ccc(OC)cc4c3cc12	CCRF-CEM leukemia	TGI	2 µM
Cc1cnc(Nc2ccc(N3CCN(C)CC3)cc2)nc1Nc1ccc(Cl)c(NS(=O)(=O)C(C)(C)C)c1	CCRF-CEM leukemia	TGI	6.83 µM

---

System: UO-31 renal
Assay: NCI tumour cell line growth inhibition, 48 h
Recorded TGI for the following compounds

compound	TGI
CC(C)(C)OC(=O)c1cccnc1/C=N/O	> 100 µM
COP(=O)(OC)/C(=C/c1cn(C(c2ccccc2)(c2ccccc2)c2ccccc2)cn1)NC=O	> 100 µM
O=c1[nH]c(=O)n(C2OC(CO)C(O)C2O)cc1OCC(F)(F)F (centres undefined)	> 100 µM
Cc1cccc(NC(=O)/C=C/c2ccc([N+](=O)[O-])cc2)c1	> 50.4 µM
Cc1ccc(NC(=O)/C(=N/N(C)C)C(C2OC(=O)c3ccccc32)[N+](=O)[O-])cc1 (centres undefined)	> 100 µM
O=C(Nc1sccc1S(=O)(=O)c1ccccc1)c1ccccc1	> 100 µM
C#CC1(O)CCC2[C@@H]3CCc4cc(Oc5nc(F)nc(-c6c7ccccc7cn6C)n5)ccc4C3CC[C@@]21C (some centres undefined)	> 100 µM
O=C(/C=C/C12c3ccccc3C(c3ccccc31)C1C(=O)NC(=O)C12)c1ccc(Cl)cc1 (centres undefined)	2.56 µM
CCOC(=O)/C(=C/c1ccc(N(CCC#N)CCC#N)cc1C)NC(=O)/C=C/c1ccccc1	> 100 µM
COc1cc(NC=C2C(=O)OC(C)(C)OC2=O)c(OC)c(C)c1OC	> 100 µM
COc1cc(C2c3cc4c(cc3[C@@H](Oc3ccc(F)cc3)C3COC(=O)[C@H]23)OCO4)cc(OC)c1O (some centres undefined)	> 100 µM
CC(C)(C)C1=CC(=C2C=Cc3ccccc3O2)C=C(C(C)(C)C)C1=O	21.9 µM
CC(C)(C)OC(=O)CN1CCN(CC(=O)N2CCN(C(=O)OCc3ccccc3)CC2)CCN(CC(=O)OC(C)(C)C)CCN(CC(=O)N2CCN(C(=O)OCc3ccccc3)CC2)CC1	25.5 µM
Cc1cn(-c2ccc(S(C)(=O)=O)cc2)c(-c2ccc(Cl)cc2)n1	> 100 µM
O=c1[nH]c(=O)n(C2CC(O)C(CO)O2)cc1C#Cc1ccc(F)cc1 (centres undefined)	> 100 µM
O=C(NCc1ccco1)c1cccc(NC2=C(Cl)C(=O)N(Cc3ccccc3)C2=O)c1	18.6 µM
CN(C(=O)Cc1cc(Cl)c(Cl)cc1NC(=O)CN)[C@H]1CCCC[C@@H]1N1CCCC1	> 100 µM
COc1ccc(Cn2cc3c(c2-c2ccccc2)CCc2cnoc2-3)cc1N	> 100 µM
C=CCOC(=O)C1CCC(=O)N1C(=O)C(Cl)Cl (centres undefined)	> 100 µM
C(=Nc1ccc(-c2nc3ccccc3[nH]2)cc1)c1ccco1	> 100 µM
COc1ccc2nc3n(c2c1)C(=O)c1ccccc1-3	> 100 µM
O=S(=O)(O)c1ccc2c(N=Nc3ccc(Cl)cc3)c(O)ccc2c1	> 100 µM
S=C(N1CCN(c2cccc(Cl)c2)CC1)N1CCN(c2cccc(Cl)c2)CC1	86.1 µM
COc1ccccc1NS(=O)(=O)c1ccc2oc(SC(C)C)nc2c1	70.3 µM
